- tested_target: FAD-linked sulfhydryl oxidase ALR (Homo sapiens) (UniProt P55789)
- Sequence (P55789 whole entry, looked up): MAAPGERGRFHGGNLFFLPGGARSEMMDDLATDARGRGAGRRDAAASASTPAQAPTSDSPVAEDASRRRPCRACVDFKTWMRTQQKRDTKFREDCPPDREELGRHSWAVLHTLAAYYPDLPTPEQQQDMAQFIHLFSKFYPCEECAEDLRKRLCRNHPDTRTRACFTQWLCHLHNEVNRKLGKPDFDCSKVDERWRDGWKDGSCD
- protocol_description: ALR-catalysed DTT oxidation blockers – biochemical, H2O2 detection, HRP-luminol luminescence, single point, primary screen (AID 485317)
- condition_notes: purified ALR, stronger effect = higher value, concentration not given here
Out of some 290,000 compounds screened, about 11,000 (3.8%) were called active. This is one part of a sample in which actives are shown more often than they occur.
Item-by-item account of inhibition
Quick note: give the figure in %, leave out the unit.

1) CC1(C)CC(=O)C=C(c2ccc3ncccc3c2)C1    -1.35
2) CCC(C)N(C(=O)CSc1nnnn1-c1ccccc1OC)C1CCS(=O)(=O)C1 (centres undefined)    1.16
3) O=C(NCc1ccc(Cl)cc1)C(=O)NCC1CCCN1S(=O)(=O)c1cccs1 (centres undefined)    -0.71

Input line: Which inhibition value is on record for CCOc1ccc(C(=O)Nc2cc(Cl)ccc2-n2cncn2)cc1OC ?
Output line: -4.75

* * *

- tested_target: FAD-linked sulfhydryl oxidase ALR (Homo sapiens) (UniProt P55789)
- protocol_description: ALR-catalysed DTT oxidation blockers – biochemical, H2O2 detection, HRP-luminol luminescence, single point, primary screen (AID 485317)
- condition_notes: purified ALR, concentration not given here
Among all 290,000 compounds or so, about 11,000 (3.8%) were called active.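 How the source made its calls: active means mean replicate inhibition above about 79%, with every replicate also reaching it (limit read from the data); inconclusive means only one of the two criteria met; inactive means mean below limit and not every replicate reaching it.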 The entries come from a sample that favours actives as a whole.
Allowed answers: active, inactive

Example cases with answers are listed next.
1. CC(Oc1cccc(Cl)c1)C(=O)Nc1ccc(S(=O)(=O)Nc2ncccn2)cc1 (stereo unspecified)    inactive
2. C=CCC1(C(=O)N(C)Cc2ccccc2)CCN(C(=O)OC(C)(C)C)CC1    inactive
3. CCc1ccc(OC(C)C(=O)Nc2ccc(S(=O)(=O)Nc3cc(C)on3)cc2)cc1 (stereo unspecified)    inactive
4. CCCCNc1c(-c2ccc(OC)c(Sc3ccc(OC)cc3)c2)nc2ccc(Cl)cn12    inactive

Input line: Fill in: this test's call for CC(=NCc1ccco1)C1=C(O)c2ccccc2C1=O is ___
Output line: inactive

Input line: Fill in: this test's call for CC(=O)NC1CC2CCCC(C1)N2CC(=O)Nc1ccccc1 (stereo unspecified) is ___
Output line: inactive

Input line: Fill in: this test's call for Cc1cc(OC(C)C(=O)Nc2ccc(S(=O)(=O)Nc3onc(C)c3C)cc2)cc(C)c1Cl (stereo unspecified) is ___
Output line: active

Input line: Fill in: this test's call for Cc1noc(NS(=O)(=O)c2ccc(N/C=C/C(=O)c3ccccc3)cc2)c1C is ___
Output line: active

Input line: Fill in: this test's call for C[C@]12CC[C@H](O)CC1=CCC1C2CC[C@@]2(C)C1CC[C@@H]2NC(=O)CCC(=O)O (stereo partly specified) is ___
Output line: inactive

* * *

- tested_target: FAD-linked sulfhydryl oxidase ALR (Homo sapiens) (UniProt P55789)
- protocol_description: ALR-catalysed DTT oxidation blockers – biochemical, H2O2 detection, HRP-luminol luminescence, single point, primary screen (AID 485317)
- condition_notes: purified ALR, concentration not given here
Out of some 290,000 compounds screened, about 11,000 (3.8%) were called active.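 How the source made its calls: active means mean replicate inhibition above about 79%, with every replicate also reaching it (limit read from the data); inconclusive means only one of the two criteria met; inactive means mean below limit and not every replicate reaching it.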 Shown is part of a subset that was picked to be rich in actives.
Allowed answers: class 1 for active, class 0 for inactive

Input line: Fill in: this test's call for COc1cccc(OC)c1C(=O)Nc1ccc(N2CCCCC2)cc1 is ___
Output line: class 1

Input line: Fill in: this test's call for COc1cccc(C(=O)Nc2ccc(N3CCN(C(=O)c4ccco4)CC3)cc2)c1 is ___
Output line: class 0

Input line: Fill in: this test's call for COc1ccc(C(=O)NC(=S)Nc2ccc(N3CCCC3)cc2)cc1OC is ___
Output line: class 0

Input line: Fill in: this test's call for Cc1cc(=O)[nH]c(N/N=C/c2c(C)nn(-c3ccccc3Cl)c2Cl)n1 is ___
Output line: class 0

Input line: Fill in: this test's call for CCCCn1c(N)c(N(CCOC)C(=O)c2cccc(S(=O)(=O)N3CCCCC3)c2)c(=O)[nH]c1=O is ___
Output line: class 0

Input line: Fill in: this test's call for Cc1cc(=O)[nH]c(N/N=C/c2ccc3c(c2)OCCO3)n1 is ___
Output line: class 0

Input line: Fill in: this test's call for COc1ccc(C(=O)Nc2ccc(N3CCC(C)CC3)cc2)cc1Br is ___
Output line: class 0

Input line: Fill in: this test's call for CC(=O)Nc1ccc(NS(=O)(=O)c2ccc3c(c2)NC(=O)CC(=O)N3)cc1 is ___
Output line: class 0

Input line: Fill in: this test's call for Cc1ccc(S(=O)(=O)Nc2ccc(F)c(S(=O)(=O)N3CCOCC3)c2)cc1 is ___
Output line: class 0

Input line: Fill in: this test's call for CCN(CC)c1ccc(/C=N/Nc2nc(C)cc(=O)[nH]2)cc1 is ___
Output line: class 1

* * *

- tested_target: FAD-linked sulfhydryl oxidase ALR (Homo sapiens)
- protocol_description: ALR-catalysed DTT oxidation blockers – biochemical, H2O2 detection, HRP-luminol luminescence, single point, primary screen (AID 485317)
- condition_notes: purified ALR, stronger effect = higher value, concentration not given here
Screen size: about 290,000 compounds; about 11,000 (3.8%) were called active. Shown is part of a subset that was picked to be rich in actives.
quantity_name: inhibition (%)
Quick note: give the figure in %, leave out the unit.

Worked examples follow.
1) O=C(O)CCC(=O)Nc1ccc(N2CCOCC2)cc1    -4.54
2) Cn1c(SCC(=O)Nc2cccc(O)c2)nnc1-c1ccc(S(=O)(=O)N2CCOCC2)cc1    16.7
3) O=C1CCCCN1CCCC(=O)N1CCCC(Nc2ccc(F)cc2)C1 (stereo unspecified)    17.9
4) COc1ccc(/C=N/Nc2nc3ccccc3o2)cc1OC    -12.6
5) COc1cc(/C=N\Nc2nc(-c3cccs3)c(NC(C)=O)s2)ccc1O    98.9
6) COc1cc2c(-c3ccc4c(c3)OCO4)c(-c3ccsc3)oc(=O)c2cc1OC    0.568
7) COc1cc(/C=N/Nc2nc3ccccc3s2)ccc1O    46.3
8) CCOc1cc(/C=C(\C#N)c2nc(-c3cccs3)c(NC(C)=O)s2)ccc1O    -22.4

Input line: Test system FAD-linked sulfhydryl oxidase ALR (Homo sapiens); read-out inhibition; what value for CCn1c(Cc2ccc(OC)cc2)nnc1SCC(=O)Nc1ccc(N2CCOCC2)cc1 ?
Output line: 39.5

Input line: Test system FAD-linked sulfhydryl oxidase ALR (Homo sapiens); read-out inhibition; what value for Cn1c(SCC(=O)N2CCOCC2)nnc1-c1ccc(NC(=O)c2ccccc2F)cc1 ?
Output line: -5.97

Input line: Test system FAD-linked sulfhydryl oxidase ALR (Homo sapiens); read-out inhibition; what value for O=C(O)c1cccc(S(=O)(=O)N2CC=C(c3ccccc3)CC2)c1 ?
Output line: 3.35

* * *

- tested_target: FAD-linked sulfhydryl oxidase ALR (Homo sapiens)
- protocol_description: ALR-catalysed DTT oxidation blockers – biochemical, H2O2 detection, HRP-luminol luminescence, single point, primary screen (AID 485317)
- condition_notes: purified ALR, concentration not given here
Screen size: about 290,000 compounds; about 11,000 (3.8%) were called active.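 How the source made its calls: active means mean replicate inhibition above about 79%, with every replicate also reaching it (limit read from the data); inconclusive means only one of the two criteria met; inactive means mean below limit and not every replicate reaching it.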 This excerpt belongs to a sample that is enriched for actives.
Allowed answers: active, inactive

Example cases with answers are listed next.
1) O=C(CSc1ncnc2sccc12)NC1CCS(=O)(=O)C1 (stereo unspecified)    inactive
2) COc1ccc(OCCNC(=O)c2cc(C3CC3)nc3c2cnn3C(C)C)cc1    inactive
3) CC(C)(C)NC(=O)CSC(=Nc1ccccc1F)NC#N    active
4) CCOC(=O)c1cccc(NC(=O)CCc2nnc3ccc(N4CCOCC4)nn23)c1    inactive
5) O=C(N=C1SC2CS(=O)(=O)CC2N1c1ccccc1)c1ccccc1 (stereo unspecified)    inactive

Input line: Fill in: this test's call for Cc1ccccc1CSCC(=O)NC(=O)NC(C)(C)C is ___
Output line: inactive

Input line: Fill in: this test's call for O=C(O)c1ccccc1CSc1nc2ccccc2s1 is ___
Output line: active

Input line: Fill in: this test's call for O=C(CSc1nc2ccccc2s1)Nc1ccc(C(=O)O)cc1 is ___
Output line: inactive

Input line: Fill in: this test's call for Cc1ccccc1SCC(=O)OCC(=O)N1CC(=O)Nc2ccccc21 is ___
Output line: inactive

Input line: Fill in: this test's call for COc1cccc(NC(=O)CCc2nnc3ccc(N4CCC(C)CC4)nn23)c1 is ___
Output line: inactive

Input line: Fill in: this test's call for COc1ccccc1-n1ccnc1SCC(=O)NC(C)(C)C is ___
Output line: inactive

* * *

- tested_target: FAD-linked sulfhydryl oxidase ALR (Homo sapiens)
- protocol_description: ALR-catalysed DTT oxidation blockers – biochemical, H2O2 detection, HRP-luminol luminescence, single point, primary screen (AID 485317)
- condition_notes: purified ALR, stronger effect = higher value, concentration not given here
About 11,000 (3.8%) of roughly 290,000 compounds were called active. Shown is part of a subset that was picked to be rich in actives.
quantity_name: inhibition (%)
Quick note: give the figure in %, leave out the unit.

Worked examples follow.
1. O=C(NCCCO)c1cc2c([nH]c3ccccc32)c(-c2ccc(F)cc2)n1    98
2. O=C(NCC1CCCO1)c1cc2c([nH]c3ccccc32)c(-c2ccc(F)cc2)n1 (stereo unspecified)    96.9
3. COc1cc(C(=S)N2CCOCC2)ccc1O    -6.46
4. CC(C)CN(C(=O)c1ccc2c(c1)OCO2)C1CCS(=O)(=O)C1 (stereo unspecified)    3.07

Input line: Which inhibition value is on record for COc1ccc2cc(C(=O)NCC3CCCO3)[nH]c2c1 (stereo unspecified) ?
Output line: -17.8

Input line: Which inhibition value is on record for CN(C)CCCNC(=O)c1ccc2[nH]c3ccccc3c2c1 ?
Output line: -6.4
